Measured values drawn from the supplement of paper PMC10567573 for this set.

B1: CPN1 (parent)
chain: RGVRRTASTPTPDDKLFQKLAKVY

- Variants of: B1
- TEST_NAME: protein stability index of a GFP-peptide fusion (GPS, HEK-293T) (PSI 1-6); higher = more stable;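 also: lentivirally expressed fusions sorted by FACS into six bins by GFP to DsRed ratio, PSI derived from sequencing read proportions per bin multiplied by bin number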
- STUDY_CONDITIONS: c terminus: a fixed tail appended
EXPERIMENTAL_ENDPOINT: protein stability index
Note: the reply should be a number with no unit written.

Looking up RGVRRTASTPTPDDKLFQKIAKVY , I see its protein stability index listed as 1.92

Reported protein stability index for RGVRHTASTPTPDDKLFQKLAKVY was 2.35

Value of measured protein stability index for the entry RGVRRTASTMTPDDKLFQKLAKVY : 1.89

For RGVRRTASTPTPDDNLFQKLAKVY the variant record lists protein stability index as 1.7

Value of measured protein stability index for the entry RGVRLTASTPTPDDKLFQKLAKVY : 2.07

The measured protein stability index associated with RGVRRTASTPTPDWKLFQKLAKVY reads 1.68

# protein stability index (variant: RGVRRTASTPTPDDKLFQKLNKVY ) is 2.66

For reference, reported protein stability index for RGVRRTASTPTPDDKCFQKLAKVY stands at 2.52

// protein stability index value for RGVRRTASTPTPDDKLFQKQAKVY : 3.17

Lookup result for RGNRRTASTPTPDDKLFQKLAKVY ; measured protein stability index: 2.2

Next variant, protein stability index to be filled in.
response.value for RGVRRTASTPTPDDKLFQKLAPVY (field: protein stability index) = 2.37
